test system: Chordin-like protein 2 (CHRDL2); test: CHRDL2 small-molecule binders, primary screen, biochemical, small-molecule microarray, 635 nm fluorescence (AID 1126); details: small-molecule microarray binding, fluorescence 635 nm; higher = more signal;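 further: printed compound slides probed with Chrdl2 protein at 4 µg/mL for 1 h at 4 C; score merges 667 nm emission intensity with signal to noise over three replicate slides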
Reported composite z-score is given for each of the following compounds.
Would you mind answering with just the numeric figure?

Field: example entries. Status: answers known.
{"compound": "O=C1O[C@H](c2ccccc2)[C@H](c2ccccc2)N2[C@H]1[C@@H](C(=O)N1CCN(c3ncccn3)CC1)[C@]1(C(=O)Nc3ccc(C#CC4(O)CCCCCC4)cc31)[C@H]2c1ccc(O)cc1", "recorded-value": -0.0362}
{"compound": "[N-]=[N+]=NCc1ccccc1[C@H]1OC(c2ccc(OCCCO)cc2)=N[C@@]1(Cc1ccccc1N=[N+]=[N-])C(=O)O", "recorded-value": 0.0332}
{"compound": "COC(=O)C1=CC(CCCO)=CC(c2ccc(CN3CCCC3)cc2)N(C)C=C1C(=O)OC (stereo not drawn)", "recorded-value": 0.164}
{"compound": "COc1ccc(-c2cc3c(c(CCc4ccccc4)n2)[Si](C(C)C)(C(C)C)O[C@H]3c2ccccc2)cn1", "recorded-value": -0.315}
{"compound": "C=C(C(=O)CC[C@@H](OC(=O)c1cccnc1)c1cccc(OCCO)c1)C(C)C", "recorded-value": -0.114}

I have this compound here, [N-]=[N+]=Nc1ccccc1C[C@]1(C(N)=O)COC(c2ccc(OCCCO)cc2)=N1 , and I need its recorded composite z-score.
-0.324

State the recorded composite z-score for this entry: CCOC(=O)C1=CCC(c2cccn2C(=O)OC(C)(C)C)N(S(=O)(=O)c2ccc(C)cc2)C1 (stereo not drawn)
0.551

Give its composite z-score value. Item: CC(=O)NCCCC[C@@H]1NC(=O)[C@H]2C[C@@H](C(=O)O)[C@@H](c3cccc(OCCO)c3)N2C1=O
1.11
